Form field: log10 IC50 (one value per entry).
- STUDY_SYSTEM: Beta Secretase enzyme (BACE1) (Homo sapiens, UniProt P56817)
- Sequence (P56817 46-501): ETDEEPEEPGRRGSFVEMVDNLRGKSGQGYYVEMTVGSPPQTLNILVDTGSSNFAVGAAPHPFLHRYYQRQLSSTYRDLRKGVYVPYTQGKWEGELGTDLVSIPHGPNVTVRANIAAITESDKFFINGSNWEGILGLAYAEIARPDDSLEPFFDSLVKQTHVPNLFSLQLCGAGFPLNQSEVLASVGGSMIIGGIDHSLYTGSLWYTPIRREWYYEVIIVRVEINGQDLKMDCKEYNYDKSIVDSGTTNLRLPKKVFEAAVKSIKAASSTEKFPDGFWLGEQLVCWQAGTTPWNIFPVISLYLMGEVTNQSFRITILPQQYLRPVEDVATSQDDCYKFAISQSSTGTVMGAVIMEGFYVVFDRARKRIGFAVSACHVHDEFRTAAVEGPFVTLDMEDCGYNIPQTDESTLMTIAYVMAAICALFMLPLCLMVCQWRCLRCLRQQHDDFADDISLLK
- TEST_DESCRIPTION: In vitro enzymatic BACE FRET assay
- Type: biochemical
- CONDITION_SET: average IC50, enzyme assay; read-out: BACE1 FRET assay IC50
A value of 2 here means IC50 of 100 in nM, since values are log10.

Example results:
[[record]]
molecule = "COc1cnc2c(Nc3ccc(F)c([C@@]45COC[C@@H]4S(=O)(=O)C(C)(C)C(N)=N5)c3)nccc2n1 [Example 247]"
value_type = "log10 IC50"
reading = 2.85

[[record]]
molecule = "COc1cnc2c(Nc3ccc(F)c([C@]4(C)CS(=O)(=O)C5(CC(F)(F)C5)C(N)=N4)c3)nccc2n1 [Example 128]"
value_type = "log10 IC50"
reading = 1.41

[[record]]
molecule = "CC1(C)C(N)=N[C@](C)(c2cc(Oc3nccc(C#N)c3Cl)ccc2F)CS1(=O)=O [Example 307]"
value_type = "log10 IC50"
reading = 2.23

[[record]]
molecule = "C#Cc1cnc(Nc2ccc(F)c([C@]3(C)CS(=O)(=O)C(C)(C)C(N)=N3)c2)c2ncc(Cl)cc12 [Example 190]"
value_type = "log10 IC50"
reading = 0.11

[[record]]
molecule = "C[C@]1(F)C(N)=N[C@](C)(c2cc(NC(=O)c3ccc(F)cn3)ccc2F)CS1(=O)=O [Example 322]"
value_type = "log10 IC50"
reading = 0.29


According to the records, this molecule C[C@]1(F)C(N)=N[C@](C)(c2cc(Nc3nccc4nc(C(F)(F)F)cnc34)ccc2F)CS1(=O)=O [Example 423] displays log10 IC50 of 0.11

According to the records, this molecule COc1cnc2c(Nc3ccc(F)c([C@]4(CF)CS(=O)(=O)C(C)(C)C(N)=N4)c3)nccc2n1 [Example 447] displays log10 IC50 of -0.06

====

- STUDY_SYSTEM: Cathepsin D (Cat D) (Homo sapiens, UniProt P07339)
- Construct: Recombinant Cat D was expressed in CHO cells; made in house; host or cells: CHO cells
- Sequence (P07339 65-412, species assumed): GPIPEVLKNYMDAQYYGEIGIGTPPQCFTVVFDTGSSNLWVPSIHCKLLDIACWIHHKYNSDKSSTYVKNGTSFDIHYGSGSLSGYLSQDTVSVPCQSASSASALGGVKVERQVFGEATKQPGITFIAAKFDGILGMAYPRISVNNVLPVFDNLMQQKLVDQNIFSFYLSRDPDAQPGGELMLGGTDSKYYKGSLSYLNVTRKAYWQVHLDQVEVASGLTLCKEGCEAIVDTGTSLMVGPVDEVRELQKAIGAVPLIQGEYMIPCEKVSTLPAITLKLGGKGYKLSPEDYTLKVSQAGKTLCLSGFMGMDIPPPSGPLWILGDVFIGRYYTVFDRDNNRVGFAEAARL
- TEST_DESCRIPTION: In vitro enzymatic Cathepsin D (Cat D) FRET assay
- Assay type: biochemical
- CONDITION_SET: read-out: CatD IC50
VALUE_TYPE: IC50 (µM)
Value expressed in µM; do not type the unit.

Example results:
[[record]]
compound = "COc1cnc2c(Nc3ccc(F)c([C@]4(CF)CS(=O)(=O)C(C)(C)C(N)=N4)c3)ncc(F)c2c1"
value_type = "IC50"
reading = 159

[[record]]
compound = "Cc1c(C(=O)Nc2ccc(F)c([C@]3(CF)CS(=O)(=O)C(C)(C)C(N)=N3)c2)nc2ccc(C#N)cn12"
value_type = "IC50"
reading = 379

[[record]]
compound = "CC1(C)C(N)=N[C@](C)(c2cc(NC(=O)c3ccc(C(F)F)cn3)ccc2F)C(F)S1(=O)=O (stereo partly shown)"
value_type = "IC50"
reading = 307

[[record]]
compound = "Cc1cc(C(F)F)cnc1C(=O)Nc1ccc(F)c([C@]2(C)CS(=O)(=O)C3(CCC3)C(N)=N2)c1"
value_type = "IC50"
reading = 150


According to the records, this compound C[C@@]1(c2cc(Br)ccc2F)CS(=O)(=O)C2(CCOC2)C(N)=N1 (mixture of isomers) displays IC50 of 43.3

====

- STUDY_SYSTEM: Beta Secretase enzyme (BACE1) (Homo sapiens, UniProt P56817)
- TEST_DESCRIPTION: In vitro enzymatic BACE FRET assay
- Assay type: biochemical
- CONDITION_SET: average IC50, enzyme assay; read-out: BACE1 FRET assay IC50
VALUE_TYPE: pIC50
Please express pIC50 as -log10 of the molar concentration.

Example results:
[[record]]
molecule = "CC1(C)C(N)=N[C@](C)(c2cc(Oc3nccc(C(F)(F)F)c3C#N)ccc2F)CS1(=O)=O"
value_type = "pIC50"
reading = 5.54

[[record]]
molecule = "CC1(C)C(N)=N[C@](C)(c2cc(NC(=O)c3cnc(C(F)F)cn3)ccc2F)CS1(=O)=O"
value_type = "pIC50"
reading = 8.53

[[record]]
molecule = "CC1(C)C(N)=N[C@](C)(c2cc(Nc3nccc4nc(OCCF)cnc34)ccc2F)CS1(=O)=O"
value_type = "pIC50"
reading = 8.27


Test item C[C@]1(F)C(N)=N[C@](C)(c2cc(NC(=O)c3ncc(Cl)cc3F)ccc2F)CS1(=O)=O ; Beta Secretase enzyme (BACE1) (Homo sapiens, UniProt P56817); reported pIC50 was 9.10

Test item CC1(C)C(N)=N[C@](C)(c2cc(Oc3nccc4ccsc34)ccc2F)CS1(=O)=O ; Beta Secretase enzyme (BACE1) (Homo sapiens, UniProt P56817); reported pIC50 was 6.29

Test item CC#CCOc1cnc(C(=O)Nc2cnc(F)c([C@]3(C)CS(=O)(=O)C4(CCC4)C(N)=N3)c2)c(C)c1 ; Beta Secretase enzyme (BACE1) (Homo sapiens, UniProt P56817); reported pIC50 was 9.11

Test item CC1(C)C(N)=N[C@](C)(c2cc(Nc3nncc4cc(C#N)cnc34)ccc2F)CS1(=O)=O ; Beta Secretase enzyme (BACE1) (Homo sapiens, UniProt P56817); reported pIC50 was 8.64

Test item CC1(C)C(N)=N[C@](C)(c2cc(NC(=O)c3ncc(C(F)F)cc3Cl)cnc2F)CS1(=O)=O ; Beta Secretase enzyme (BACE1) (Homo sapiens, UniProt P56817); reported pIC50 was 8.23

====

- STUDY_SYSTEM: Beta Secretase enzyme (BACE1) (Homo sapiens, UniProt P56817)
- TEST_DESCRIPTION: In vitro enzymatic BACE FRET assay
- Format: biochemical
- CONDITION_SET: average IC50, enzyme assay; read-out: BACE1 FRET assay IC50
API: label(entry) gives class 1 if the entry's IC50 is strictly smaller than 1 nM; on equality or larger values it gives class 0.

Query: Answer whether the compound CC1(C)C(N)=N[C@](C)(c2cc(Oc3cccc(C(F)(F)F)n3)ccc2F)CS1(=O)=O has IC50 strictly less than 1 nM
Reply: class 0

Query: Answer whether the compound CC1(C)C(N)=N[C@](C)(c2cc(NC(=O)c3ncc(Cl)cc3Br)ccc2F)CS1(=O)=O has IC50 strictly less than 1 nM
Reply: class 1

Query: Answer whether the compound CC1(C)C(N)=N[C@](CF)(c2cc(NC(=O)c3ccc(OC(F)F)cn3)ccc2F)CS1(=O)=O has IC50 strictly less than 1 nM
Reply: class 1

Query: Answer whether the compound Cc1cc(OCCF)cnc1C(=O)Nc1ccc(F)c([C@]2(CF)CS(=O)(=O)C(C)(C)C(N)=N2)c1 has IC50 strictly less than 1 nM
Reply: class 0

====

- STUDY_SYSTEM: Beta Secretase enzyme (BACE1) (Homo sapiens)
- TEST_DESCRIPTION: In vitro enzymatic BACE FRET assay
- Assay type: biochemical
- CONDITION_SET: average IC50, enzyme assay; read-out: BACE1 FRET assay IC50
VALUE_TYPE: IC50 (nM)
Value expressed in nM; do not type the unit.

[[record]]
molecule = "Cc1cnc(C(=O)Nc2ccc(F)c([C@]3(CF)CS(=O)(=O)C(C)(C)C(N)=N3)c2)c(C)c1 [Example 360]"
study_system = "Beta Secretase enzyme (BACE1) (Homo sapiens)"
unit = "nM"
reading = 2.99

[[record]]
molecule = "Cc1cc(Cl)cnc1C(=O)Nc1ccc(F)c([C@@]2(C)N=C(N)C(C)(C)S(=O)(=O)C23CC3)c1 [Example 340]"
study_system = "Beta Secretase enzyme (BACE1) (Homo sapiens)"
unit = "nM"
reading = 5.1

[[record]]
molecule = "COc1ncc(NC(=O)c2ccc(Cl)cn2)cc1[C@]1(C)CS(=O)(=O)C(C)(C)C(N)=N1 [Example 170]"
study_system = "Beta Secretase enzyme (BACE1) (Homo sapiens)"
unit = "nM"
reading = 22.5


# evaluate next
Test item COc1cc(Cl)ccc1C(=O)Nc1ccc(F)c([C@]2(C)CS(=O)(=O)C(C)(C)C(N)=N2)c1 [Example 345] ; Beta Secretase enzyme (BACE1) (Homo sapiens); reported IC50 was 31.3

====

- STUDY_SYSTEM: Cathepsin D (Cat D) (Homo sapiens)
- Construct: Recombinant Cat D was expressed in CHO cells; made in house; host or cells: CHO cells
- TEST_DESCRIPTION: In vitro enzymatic Cathepsin D (Cat D) FRET assay
- Type: biochemical
- CONDITION_SET: read-out: CatD IC50
VALUE_TYPE: log10 IC50 (log10 of the value in µM)
A value of 2 here means IC50 of 100 in µM, since values are log10.

Example results:
[[record]]
structure_smiles_string = "Cc1cc(OCC(F)(F)F)cnc1C(=O)Nc1ccc(F)c([C@]2(CF)CS(=O)(=O)C3(CCC3)C(N)=N2)c1"
value_type = "log10 IC50"
reading = 2.80

[[record]]
structure_smiles_string = "CC1(C)C(N)=N[C@](C)(c2cc(Nc3c(Cl)sc4cc(C#N)cnc34)ccc2F)CS1(=O)=O"
value_type = "log10 IC50"
reading = 1.07

[[record]]
structure_smiles_string = "CC1(C)C(N)=N[C@](C)(c2cc(Nc3ccc4c(c3)OC(F)(F)O4)cnc2F)CS1(=O)=O"
value_type = "log10 IC50"
reading = 1.53

[[record]]
structure_smiles_string = "CC1(C)C(N)=N[C@](C)(c2cc(NC(=O)c3cnc(OC(F)F)cn3)ccc2F)CS1(=O)=O"
value_type = "log10 IC50"
reading = 2.59


Test item CC1(C)C(N)=N[C@](CF)(c2cc(Nc3nccc4cc(C#N)cnc34)ccc2F)CS1(=O)=O ; Cathepsin D (Cat D) (Homo sapiens); reported log10 IC50 was 2.07
